- assayed system: 5-hydroxytryptamine receptor 1A (Homo sapiens)
- test details: Antagonist activity against CHO cells expressing the human 5-hydroxytryptamine 1A receptor in a forskolin stimulated adenylate cyclase (FSC) assay.
- Assay type: functional, cell-based
Kindly state FSC recovery for each of the entries shown.
Numbers only, in %.

Consider the worked cases shown below.
| compound | assayed system | FSC recovery [%] |
| --- | --- | --- |
| CCCOc1ccc(CCCCNCCOc2cc(F)cc3c2OCCC3=O)cc1 | 5-hydroxytryptamine receptor 1A (Homo sapiens) | 33 |
| O=C1CCOc2c(OCCNCCCCc3ccc([N+](=O)[O-])cc3)cc(F)cc21 | 5-hydroxytryptamine receptor 1A (Homo sapiens) | 3 |

# batch size: 8; output FSC recovery per entry
1. COc1ccc(CCCCNCCOc2cc(F)cc3c2OCCC3)cc1
2. CN(C)c1ccc(CCCCNCCOc2cc(F)cc3c2OCCC3=O)cc1
3. O=C1CCOc2c(OCCNCCCCc3ccc4c(c3)CCO4)cc(F)cc21
4. COc1ccc(CCCCNCCOc2cc(F)cc3c2OCCC3=O)cc1
5. O=C1CCOc2c(OCCNCCCCc3ccccc3)cc(F)cc21
6. COc1ccccc1CCCCNCCOc1cc(F)cc2c1OCCC2=O
7. COc1cccc(CCCCNCCOc2cc(F)cc3c2OCCC3=O)c1
8. COc1ccc(CCCCNCCOc2cc(F)cc3c2OCCC3OC)cc1 (configuration not stated)

1: 121; 2: 37; 3: 68; 4: 59; 5: 16; 6: 44; 7: 3; 8: 111
